Reference source: PubChem BioAssay (NCI)

log10 of TGI: recorded values
System: OVCAR-3 ovarian
Test: NCI tumour cell line growth inhibition, 48 h
Please be aware that the numbers have been log10-transformed from TGI in µM.

Consider the worked cases shown below.
Lookup: Reported log10 of TGI for "CN(CCO)C1CCN(c2ccc(Nc3ncc4c5ccnc(F)c5n(C5CCCC5)c4n3)nc2)CC1" : what is it?
Found: 1.48

Lookup: Reported log10 of TGI for "Cc1nn(-c2ccccc2)c(-n2ccnc2)c1/C=N/Nc1nc(-c2ccc(Cl)c(Cl)c2)cs1" : what is it?
Found: 0.54

Lookup: Reported log10 of TGI for "Cc1cc(C)nc(NS(=O)(=O)c2ccc(NC(=O)c3cccc4c(Nc5ccc(S(=O)(=O)N=C(N)N)cc5)c5ccc(Cl)cc5nc34)cc2)n1" : what is it?
Found: 1.72

Lookup: Reported log10 of TGI for "COc1cc(-c2cc(/C=C3\C(=O)Nc4ccc(Cl)cc43)[nH]n2)cc(OC)c1OC" : what is it?
Found: 1.85

Lookup: Reported log10 of TGI for "Cc1ccc(NS(=O)(=O)c2ccc(-c3cnc(C4CC4)o3)cc2)cc1C" : what is it?
Found: 1.10

Lookup: Reported log10 of TGI for "CCN(CC)CCn1c(N)c(-c2nc3ccccc3n2C)c2nc(C#N)c(C#N)nc21" : what is it?
Found: 0.86

Lookup: Reported log10 of TGI for "CNCCCNc1c2cc(OC)ccc2nc2cccc([N+](=O)[O-])c12" : what is it?
Found: -0.09

Lookup: Reported log10 of TGI for "O=C(c1ccco1)N(Cc1cccnc1)C(=S)N(Cc1cccnc1)C(=O)c1ccco1" : what is it?
Found: 1.37

More entries:
Lookup: Reported log10 of TGI for "COC(=O)c1cc2cc(-c3ccc(OC)cc3)cnc2[nH]1" : what is it?
Found: 0.08

Lookup: Reported log10 of TGI for CCCCN(CCCC)CC(O)c1ccc(OCc2ccccc2)c2ccccc12 (stereo unspecified) : what is it?
Found: 1.26

====

TGI: recorded values
Tested on: M14 melanoma
Assay: NCI tumour cell line growth inhibition, 48 h

Consider the worked cases shown below.
Lookup: Reported TGI for "NS(=O)(=O)c1ccc(Nc2ncc(-c3ccccc3)o2)cc1" : what is it?
Found: > 25 µM

Lookup: Reported TGI for CO[C@]12CC(=O)C3(C(C[C@H]4CC5CCC6=CC(=O)CC[C@]6(OC(C)=O)C5C[C@@]43C)C1)C1C[C@H]3[C@@H]4CCC5=CC(=O)CC[C@]5(OC(C)=O)[C@H]4CC[C@]3(C)C12 (stereo not given in full) : what is it?
Found: > 100 µM

More entries:
Lookup: Reported TGI for "COc1cccc(-n2ncc3c(N/N=C/c4ccc(F)cc4)ncnc32)c1" : what is it?
Found: > 25 µM

Lookup: Reported TGI for CC1(C)N([O-])[N+](=O)C1(C)Br (stereo not given) : what is it?
Found: > 100 µM

Lookup: Reported TGI for "CCC(CC)COC(=O)[C@H](C)N[P@](=O)(OC[C@H]1O[C@@](C#N)(c2ccc3c(N)ncnn23)[C@H](O)[C@@H]1O)Oc1ccccc1" : what is it?
Found: 12.2 µM

Lookup: Reported TGI for "C=C1C(=O)O[C@H]2[C@H]1CC/C(COC(=O)NCc1ccc(Cn3c(=O)sn(CCI)c3=O)cc1)=C\CC[C@@]1(C)O[C@@H]21" : what is it?
Found: 3.59 µM

Lookup: Reported TGI for COc1ccc(N2C(=O)C3c4[nH]c5ccc(OC)cc5c4C4CCC(C(C)C)CC4C3C2=O)cc1 (stereo not given) : what is it?
Found: > 100 µM

Lookup: Reported TGI for O=C1c2cc3c(cc2[C@@H]2NC4CCCC14O2)OCO3 (stereo not given in full) : what is it?
Found: > 100 µM

Lookup: Reported TGI for Cn1cc2ccccc2c1-c1nc(F)nc(Oc2ccc3c(c2)CC[C@@H]2C3CC[C@@]3(C)C2CC[C@@H]3O)n1 (stereo not given in full) : what is it?
Found: 20.4 µM

Lookup: Reported TGI for "CCN(CC)CCn1c(=O)c2ccccc2n2c3c(=O)n(C)c(=O)n(C)c3nc12" : what is it?
Found: 13 µM

Lookup: Reported TGI for "O=C(CSCC(=O)N/N=C/c1cccc(C(F)(F)F)c1)N/N=C/c1cccc(C(F)(F)F)c1" : what is it?
Found: > 100 µM

Lookup: Reported TGI for COc1ccc(C2CC(c3ccc4ccccc4c3O)=NN2)cc1OC (stereo not given) : what is it?
Found: > 100 µM

Lookup: Reported TGI for "O=C1C(c2ccccc2)=C(c2ccccc2)C(c2ccc(-c3ccc(C4=C(c5ccccc5)C(=O)C(c5ccccc5)=C4c4ccccc4)cc3)cc2)=C1c1ccccc1" : what is it?
Found: > 100 µM

Lookup: Reported TGI for "COc1ccc2c(c1)CC[C@@H]1[C@@H]2CC[C@]2(C)C(c3ccsc3)=C(/C=C/C(=O)c3ccccc3)C[C@@H]12" : what is it?
Found: > 100 µM

Lookup: Reported TGI for "Cc1c(C(=O)C(=O)c2ccccc2)c(C)c(C(=O)C(=O)c2ccccc2)c(C)c1C(=O)C(=O)c1ccccc1" : what is it?
Found: > 100 µM

Lookup: Reported TGI for CCSc1nc(-c2ccc(OC)cc2)c(C#N)c(=O)n1C1OCC(OC(C)=O)C(OC(C)=O)C1OC(C)=O (stereo not given) : what is it?
Found: > 100 µM

Lookup: Reported TGI for "O=C1c2[nH]cc(CN3CCN(CCO)CC3)c2C(=O)c2c1c(O)c1ccccc1c2O" : what is it?
Found: 3.86 µM

Lookup: Reported TGI for CC(C)(Oc1ccc(Cl)cc1)C(=O)NC1C2CC3CC1CC(NS(C)(=O)=O)(C3)C2 (stereo not given) : what is it?
Found: 80.1 µM

Lookup: Reported TGI for C=CCCC(=O)N1CCC(C(=O)OCC)C1=O (stereo not given) : what is it?
Found: > 100 µM
